Origin of measurements: ChEMBL document CHEMBL1151943

Biological target: Glutamate receptor 3 (Rattus norvegicus)
Sequence (P19492 whole entry): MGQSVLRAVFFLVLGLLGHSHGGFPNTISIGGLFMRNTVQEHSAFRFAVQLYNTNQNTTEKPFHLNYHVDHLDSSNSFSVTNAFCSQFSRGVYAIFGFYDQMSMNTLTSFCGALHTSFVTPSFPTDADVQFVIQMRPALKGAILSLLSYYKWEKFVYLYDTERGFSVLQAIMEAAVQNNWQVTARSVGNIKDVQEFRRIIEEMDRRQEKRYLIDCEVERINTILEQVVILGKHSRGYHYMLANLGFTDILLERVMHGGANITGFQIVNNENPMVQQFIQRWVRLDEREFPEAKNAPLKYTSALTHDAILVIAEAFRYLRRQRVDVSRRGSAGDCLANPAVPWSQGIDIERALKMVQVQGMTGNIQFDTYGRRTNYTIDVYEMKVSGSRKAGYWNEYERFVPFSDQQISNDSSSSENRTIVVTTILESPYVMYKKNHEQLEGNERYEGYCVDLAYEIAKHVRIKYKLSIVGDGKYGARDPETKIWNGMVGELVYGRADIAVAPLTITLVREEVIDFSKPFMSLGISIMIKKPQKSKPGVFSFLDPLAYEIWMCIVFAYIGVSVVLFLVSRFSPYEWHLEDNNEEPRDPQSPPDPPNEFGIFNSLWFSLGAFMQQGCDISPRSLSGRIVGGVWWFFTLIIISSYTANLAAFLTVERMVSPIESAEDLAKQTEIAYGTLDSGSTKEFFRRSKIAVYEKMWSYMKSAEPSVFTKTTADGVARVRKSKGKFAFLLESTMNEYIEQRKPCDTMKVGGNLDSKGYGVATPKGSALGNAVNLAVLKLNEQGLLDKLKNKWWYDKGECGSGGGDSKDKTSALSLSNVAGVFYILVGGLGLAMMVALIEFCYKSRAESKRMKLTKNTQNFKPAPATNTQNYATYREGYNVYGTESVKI
Assay: Agonist activity at rat recombinant GluR3 flip isomer expressed in HEK293 cells assessed as increase in intracellular calcium level by Fluo-4/AM assay
Assay type: functional, cell-based
Details: read-out: EC50
test_readout: EC50 (µM)
Respond numerically; units are µM and should not be typed.

Here's what some known entries look like.
INSERT INTO measurements (compound, test_readout, endpoint_unit, assay_value) VALUES
  ('N[C@@H](CC1=CCCCc2onc(O)c21)C(=O)O', 'EC50', 'µM', 13),
  ('CC1CCC=C(C[C@H](N)C(=O)O)c2c(O)noc21 (mixture of isomers)', 'EC50', 'µM', 48);

Give measured EC50 for CC(C)(C)c1o[nH]c(=O)c1C[C@H](N)C(=O)O (Glutamate receptor 3 (Rattus norvegicus)).
630

====

// reported Activity per item
Biological target: Glutamate receptor 4 (Rattus norvegicus)
Assay: Agonist activity at rat recombinant GluR4 flip isomer expressed in HEK293 cells assessed as increase in intracellular calcium level by Fluo-4/AM assay relative to glutamic acid
Assay type: functional, cell-based
Respond numerically; units are % and should not be typed.

Here's what some known entries look like.
INSERT INTO results (compound, assayed_system, test_readout, endpoint_unit, assay_value) VALUES
  ('C=C(C)[C@H]1CN[C@H](C(=O)O)[C@H]1CC(=O)O', 'Glutamate receptor 4 (Rattus norvegicus)', 'Activity', '%', 55),
  ('N[C@@H](CC1=CCCCc2onc(O)c21)C(=O)O', 'Glutamate receptor 4 (Rattus norvegicus)', 'Activity', '%', 79),
  ('CC1CCC=C(C[C@H](N)C(=O)O)c2c(O)noc21 (mixture of isomers)', 'Glutamate receptor 4 (Rattus norvegicus)', 'Activity', '%', 68);

Consider now this further compound.
Name the recorded Activity of the compound listed here: CC(C)(C)c1onc(O)c1C[C@H](N)C(=O)O
102

====

Target: Glutamate receptor 1 (Rattus norvegicus) (UniProt P19490)
Sequence (P19490 whole entry, canonical isoform): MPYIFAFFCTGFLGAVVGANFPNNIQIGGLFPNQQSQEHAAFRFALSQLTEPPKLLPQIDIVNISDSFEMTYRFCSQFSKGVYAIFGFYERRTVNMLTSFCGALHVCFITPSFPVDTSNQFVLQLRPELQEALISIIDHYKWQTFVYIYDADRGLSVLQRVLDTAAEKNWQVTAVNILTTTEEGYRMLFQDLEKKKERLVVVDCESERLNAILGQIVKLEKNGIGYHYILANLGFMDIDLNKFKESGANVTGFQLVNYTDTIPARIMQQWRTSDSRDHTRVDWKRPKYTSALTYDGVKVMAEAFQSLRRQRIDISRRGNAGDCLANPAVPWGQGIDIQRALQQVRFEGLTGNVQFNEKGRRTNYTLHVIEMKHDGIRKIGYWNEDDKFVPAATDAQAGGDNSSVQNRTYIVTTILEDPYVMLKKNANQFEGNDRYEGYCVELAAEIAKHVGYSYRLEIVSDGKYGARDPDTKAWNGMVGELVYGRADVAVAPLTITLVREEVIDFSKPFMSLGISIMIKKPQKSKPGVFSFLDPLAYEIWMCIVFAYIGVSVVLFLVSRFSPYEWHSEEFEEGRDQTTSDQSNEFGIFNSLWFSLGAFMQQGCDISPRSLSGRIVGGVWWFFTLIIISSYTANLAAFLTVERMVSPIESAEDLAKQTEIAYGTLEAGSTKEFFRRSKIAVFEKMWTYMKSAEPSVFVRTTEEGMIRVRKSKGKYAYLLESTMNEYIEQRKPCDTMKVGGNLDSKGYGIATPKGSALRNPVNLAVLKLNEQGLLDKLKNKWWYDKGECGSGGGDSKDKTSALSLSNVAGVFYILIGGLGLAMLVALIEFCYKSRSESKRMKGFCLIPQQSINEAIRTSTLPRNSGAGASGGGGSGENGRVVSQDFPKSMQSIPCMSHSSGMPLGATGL
Test: Agonist activity at rat recombinant GluR1 flip isoform expressed in HEK293 cells assessed as increase in intracellular calcium level by Fluo-4/AM assay relative to glutamic acid
Format: functional, cell-based
// reported Activity per item
Field note: include the unit after the figure.

Here's what some known entries look like.
INSERT INTO results (compound, test_readout, assay_value) VALUES
  ('C=C(C)[C@H]1CN[C@H](C(=O)O)[C@H]1CC(=O)O', 'Activity', '18%'),
  ('CC(C)(C)c1onc(O)c1C[C@H](N)C(=O)O', 'Activity', '101%'),
  ('N[C@@H](CC1=CCCCc2onc(O)c21)C(=O)O', 'Activity', '28%');

Consider now this further compound.
Give measured Activity for CC1CCC=C(C[C@H](N)C(=O)O)c2c(O)noc21 (mixture of isomers) (Glutamate receptor 1 (Rattus norvegicus) (UniProt P19490)).
29%

====

Target: Glutamate receptor ionotropic, kainate 1 (Rattus norvegicus)
Sequence (P22756 whole entry, canonical isoform): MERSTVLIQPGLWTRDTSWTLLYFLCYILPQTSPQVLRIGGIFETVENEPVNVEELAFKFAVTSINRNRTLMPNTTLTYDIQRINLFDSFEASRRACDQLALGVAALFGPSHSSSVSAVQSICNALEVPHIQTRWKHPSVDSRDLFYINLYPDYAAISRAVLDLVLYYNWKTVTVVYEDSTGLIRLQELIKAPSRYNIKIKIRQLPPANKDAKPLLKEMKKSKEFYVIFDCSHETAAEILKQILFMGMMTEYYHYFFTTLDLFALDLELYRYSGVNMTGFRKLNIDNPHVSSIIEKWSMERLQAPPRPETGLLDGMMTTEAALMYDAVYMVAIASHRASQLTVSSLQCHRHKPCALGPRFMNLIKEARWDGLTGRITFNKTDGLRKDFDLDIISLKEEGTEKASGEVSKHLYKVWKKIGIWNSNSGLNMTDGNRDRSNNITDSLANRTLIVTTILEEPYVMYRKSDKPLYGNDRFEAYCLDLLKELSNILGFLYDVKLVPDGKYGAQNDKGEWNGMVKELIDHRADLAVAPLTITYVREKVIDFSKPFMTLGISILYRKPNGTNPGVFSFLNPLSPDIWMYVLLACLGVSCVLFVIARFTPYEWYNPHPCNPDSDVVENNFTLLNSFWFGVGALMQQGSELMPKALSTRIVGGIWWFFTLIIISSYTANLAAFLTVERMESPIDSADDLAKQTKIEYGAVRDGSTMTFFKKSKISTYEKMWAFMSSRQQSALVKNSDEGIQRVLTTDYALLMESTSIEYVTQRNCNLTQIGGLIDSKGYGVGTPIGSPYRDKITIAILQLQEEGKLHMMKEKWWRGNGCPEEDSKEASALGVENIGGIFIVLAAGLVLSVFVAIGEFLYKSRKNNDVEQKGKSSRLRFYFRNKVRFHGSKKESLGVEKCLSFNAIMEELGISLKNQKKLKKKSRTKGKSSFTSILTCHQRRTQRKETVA
Assay: Displacement of [3H]SYM from rat recombinant GluR5(Q) RNA-edited isoform expressed in baculovirus infected Sf9 cells
test_readout: Ki

Give measured Ki for CC1CCC=C(C[C@H](N)C(=O)O)c2c(O)noc21 (mixture of isomers) (Glutamate receptor ionotropic, kainate 1 (Rattus norvegicus)).
5.08 nM

====

Target: Glutamate receptor ionotropic, kainate 2 (Rattus norvegicus, UniProt P42260)
Sequence (P42260 whole entry, canonical isoform): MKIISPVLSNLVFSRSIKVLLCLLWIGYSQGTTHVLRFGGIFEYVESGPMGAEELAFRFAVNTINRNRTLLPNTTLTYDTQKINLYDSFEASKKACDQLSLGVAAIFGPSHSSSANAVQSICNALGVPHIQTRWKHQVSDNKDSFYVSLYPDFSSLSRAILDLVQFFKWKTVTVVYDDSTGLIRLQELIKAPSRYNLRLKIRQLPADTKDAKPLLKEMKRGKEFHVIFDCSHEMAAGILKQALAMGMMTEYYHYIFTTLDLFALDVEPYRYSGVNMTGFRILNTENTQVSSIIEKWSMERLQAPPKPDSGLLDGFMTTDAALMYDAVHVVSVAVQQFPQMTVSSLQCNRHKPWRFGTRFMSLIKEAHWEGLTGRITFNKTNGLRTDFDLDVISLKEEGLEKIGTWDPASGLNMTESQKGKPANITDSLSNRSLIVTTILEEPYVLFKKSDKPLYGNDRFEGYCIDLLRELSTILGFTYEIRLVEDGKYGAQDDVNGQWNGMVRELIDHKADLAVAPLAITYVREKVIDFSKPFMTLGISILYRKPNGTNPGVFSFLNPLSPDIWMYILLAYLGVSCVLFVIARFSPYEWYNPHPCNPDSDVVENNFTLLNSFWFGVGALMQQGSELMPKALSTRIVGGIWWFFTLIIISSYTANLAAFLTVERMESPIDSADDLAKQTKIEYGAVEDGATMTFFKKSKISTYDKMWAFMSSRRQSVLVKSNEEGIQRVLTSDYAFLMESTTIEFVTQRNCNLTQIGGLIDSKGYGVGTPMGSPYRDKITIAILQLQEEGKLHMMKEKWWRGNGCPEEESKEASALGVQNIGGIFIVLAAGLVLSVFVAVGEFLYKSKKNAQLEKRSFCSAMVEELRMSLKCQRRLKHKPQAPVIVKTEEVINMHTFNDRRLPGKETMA
Assay: Displacement of [3H]KA from rat recombinant GluR6(VCR) RNA-edited isoform expressed in baculovirus infected Sf9 cells
pKi: −log10 of the molar value.
test_readout: pKi

Name the recorded pKi of the compound listed here: CC1CCC=C(C[C@H](N)C(=O)O)c2c(O)noc21 (mixture of isomers)
< 4.00
